Entry source: PubChem BioAssay AID1996

We begin with a simple list: items and their reported solubility kinetic.
# Measurement Conditions: buffer; pH 7.4; 200.0 µM
A number alone suffices; assume µg/mL.

COc1ccccc1OCCNC(=O)CC(NC(C)=O)c1ccccc1 (stereo unspecified): 53.4
O=C(Cc1csc(-c2ccccc2)n1)NCc1cccs1: 15.6
CCOC(=O)C1CCN(C/C=C/c2ccccc2)CC1: 27.2
O=C(Nc1ccccc1)C(=O)c1c[nH]c2ccccc12: 0.8
CCN(C(=O)CSc1ccc2ccccc2n1)C1CCCCC1: 14.6
O=[N+]([O-])c1ccc(CN2CCN(c3ccc(Cl)cc3)CC2)o1: 4.7
CS(=O)(=O)/C(C#N)=C/c1cccn1S(=O)(=O)c1ccccc1: 6.8

# context switch: different compound, same solubility kinetic
Reported solubility kinetic of O=[N+]([O-])c1ccccc1S(=O)(=O)c1ccccc1[N+](=O)[O-] : 0.8

====

The entries below come with measured solubility kinetic values attached.
# Measurement Conditions: buffer; pH 7.4; 200.0 µM
Give your result in µg/mL as a bare value.

Previously resolved entries follow.
O=C(CSc1nc2ncc(Cl)cc2[nH]1)c1ccc2c(c1)OCO2: 1.8
COCCNC(=S)N(CCc1c(C)[nH]c2ccc(C)cc12)Cc1ccco1: 15.2
CCOc1ccc(C(C)NC(=O)c2cccs2)cc1OCC (stereo not given): 11.1
Clc1ccccc1/C=C/c1nc(-c2cccnc2)no1: 0.8
CC(NC(=S)NC(=O)c1cccs1)c1ccccc1 (stereo not given): 8.2
CS(=O)(=O)NCC(c1cccnc1)N1CCN(c2ccccc2F)CC1 (stereo not given): 55.4

Looking up CS(=O)(=O)c1ccccc1C(=O)Nc1ccc2sccc2c1 , I found its solubility kinetic recorded as 33.8

# molecule COc1ccc(OCC(=O)NC2CCSc3ccccc32)cc1 (stereo not given) ; its solubility kinetic = 38.6

Kindly note the recorded solubility kinetic for CC(=O)Nc1nc2c(ccc3ccccc32)s1 , which is 0.9

====

# Measurement Conditions: buffer; pH 7.4; 200.0 µM
Listing of recorded solubility kinetic by entry.
API: value field is a number in mg/mL; no unit string.

Below are worked cases with known answers.
COc1ccc(C(C)=O)cc1CN1C(=O)NC2(CCCC2)C1=O: 0.0449
Cc1cc(NC(=O)COc2ccccc2)ccc1Cl: 0.0019
N#CC(CCN1CCOCC1)(c1ccccc1)c1ccccc1: 0.0431
Cc1ccc(SCc2cn3ccccc3n2)cc1: 0.037
O=C(c1ccc2c(c1)OCO2)N1CCC(Cc2ccccc2)CC1: 0.0416
Cc1cccc(/N=C2/NC(=O)C(Cc3ccccc3)S2)n1 (stereo unspecified): 0.0003
OCCN1CNC(=S)NC1: 0.0228
Cn1c(-c2ccccc2)cnc1NCc1cc(Cl)ccc1O: 0.0012

So, COc1ccc(CNC(=O)Nc2cccc(Cl)c2)cc1 ? Its solubility kinetic was 0.0011

Short answer for COc1ccc(Nc2oc(-c3ccc(OC)cc3)nc2C#N)cc1 : solubility kinetic was 0.0007

====

# Measurement Conditions: buffer; pH 7.4; 200.0 µM
Endpoint: solubility kinetic

O=C(COC(=O)CC1CCCC1)Nc1ccc(Br)cc1F: 19.2 µg/mL
O=c1cc(O)nc[nH]1: > 16.8 µg/mL
Cc1ccc(NC(=O)c2sc(N)nc2C)cc1: > 37.1 µg/mL
N#Cc1c(SCC(=O)O)nc(N2CCOCC2)c2c1CCCC2: > 50 µg/mL
Cc1ccc(Nc2cc(C)nc3c(C)cccc23)cc1: 35 µg/mL
CC(=O)c1ccc(N=C2SCCCN2C(=O)C2CCCC2)cc1: 47.5 µg/mL

Recorded result, Cc1cc(NCc2ccc(F)cc2)nc2cc(Cl)ccc12 , solubility kinetic: 0.8 µg/mL

Record summary for COc1ccc(Cc2n[nH]c(=S)o2)cc1 : reported solubility kinetic = > 33.3 µg/mL
